test system: MCF7 breast; assay: NCI-60 one-dose screen, 48 h (100 = growth as untreated, 0 = no growth, -100 = all killed); settings: 10 µM unless noted
This is part of a sample that, as a whole, favours compounds with a hit. Of some 83,000 tested, about 20% had one in any assay.
outcome-measure: growth (%)

Fc1cccc(CNc2nc(SCCN3CCOCC3)nc3c2cnn3CC(Cl)c2ccc(Br)cc2)c1 (stereo not given) :: 7.42
COc1ccc(-c2cc(C(=O)N=Nc3c(O)[nH]c4ccc(Cl)cc34)c3ccccc3n2)cc1OC :: 87.8
CC1CCc2c(sc3nc(SCC(=O)c4cccc(Br)c4)n(-c4ccccc4)c(=O)c23)C1 (stereo not given) :: 56.9
COc1nc(N)ncc1-c1ccc2ncnc(N3CCc4cc(F)c(Cl)cc43)c2c1 :: 29.8
CN(C)C(=O)c1cc(-c2ccc3ncnc(N4CCc5cc(F)c(Cl)cc54)c3c2)cnc1N :: -59.9
Cn1ncc2c(N)nc(Oc3ccccc3-c3ccccc3)nc21 :: 9.1
CCOC(=O)c1ccc(NC(=S)NC(=O)c2ccc(NC(=O)C(C)C)cc2OC)cc1 :: 8.31
Cc1ccc(NC(=O)N/N=C/c2c[nH]c3ccccc23)c(C)c1 :: 7.55
Cn1cc(-c2cc3nc(-c4cn(C)c5ncccc45)cc(N)n3n2)c2cc(F)ccc21 :: 68.2
Cc1ccc(Cl)cc1NC(=O)Nc1nc2ccc([N+](=O)[O-])cc2s1 :: 0.201
FC(F)(F)c1cc2c(Cl)ncnc2n1CCN1CCCCC1 :: 52.1
NCCCCn1c(SCCc2c[nH]c3ccccc23)nnc1-c1ccc2ccccc2n1 :: -88.8
Clc1ccc2c(NCCNC34CC5CC(CC(C5)C3)C4)ccnc2c1 :: -78.7
COc1ccccc1Nc1nnc(-c2c[nH]c3ccccc23)o1 :: 10.6
C#CCN(C)CCCOc1ccc(N(C)C(=O)c2cc(C(C)C)c(O)cc2O)cc1Cl :: 7.62
COC(=O)c1c(C(=O)OC)c2ccc3c4ccccc4ccc3n2c1C(=O)OC :: 85.4
Cc1nc2sccn2c1-c1nnc(SCC(C)C)o1 :: 37.5
CNS(=O)(=O)N1CCc2c(Br)c3c(c(OC)c2C1CCc1ccccc1)OCO3 (stereo not given) :: -22.3
CCC1(OC(=O)c2ccccc2SSCCOC(=O)CCCCC2SCC3NC(=O)NC32)C(=O)OCc2c1cc1n(c2=O)Cc2cc3ccccc3nc2-1 (stereo not given) :: 26.5
O=c1[nH]c2ccccc2cc1CSc1ccccc1Nc1nccc(-c2ccc3c(c2)OCO3)n1 :: 69.2

---

system: BT-549 breast; assay: NCI-60 one-dose screen, 48 h (100 = growth as untreated, 0 = no growth, -100 = all killed); conditions: 10 µM unless noted
The panel holds about 83,000 compounds, 20% with a hit somewhere; the sample as a whole holds those more often.
outcome-measure: growth (%)

Cn1cc(-c2cc(N)n3nc(-c4c[nH]c5ccccc45)cc3n2)c2cc(Cl)ccc21 :: -3.57
O=C1NC(=S)/C(=C/c2cn(-c3ccccc3)nc2-c2ccccc2)S1 :: -9.85
O=C(CSc1nc2ccccc2c(=O)[nH]1)NNC(=O)c1ccccc1Cl :: 160
O=C(CSc1nc2sc3c(c2c(=O)n1-c1ccc(Cl)cc1)CCCC3)NNC(=O)c1ccc(F)cc1 :: 67.3
C=CC(=O)N1CCN(c2ccc3nc4c(nc3c2C(F)(F)F)C(=O)c2ncccc2C4=O)CC1 :: 10.1

---

tested on: LOX IMVI melanoma; assay: NCI-60 one-dose screen, 48 h; conditions: 10 µM unless noted
About 83,000 compounds went through this panel and 20% of them were active in at least one assay; those are over-represented in the sample as a whole. The source made the active and inactive calls. Rule for the calls: active = growth percent below 10; inactive = the rest.
Outcomes: label 1 = active, label 0 = inactive

Nc1cc2ccccc2c(=O)n1NC(=O)c1ccc(Br)cc1 :: label 0
Cc1ccc(C(=O)C[n+]2cccc3c4ccccc4ccc32)cc1 :: label 1
O=C(N/N=C/c1ccc(-c2cccc([N+](=O)[O-])c2)s1)c1[nH]c2ccc(Br)cc2c1-c1ccccc1 :: label 0
O=C(NC(=S)N1CCN(c2ncnc3c2cnn3-c2ccccc2)CC1)c1ccc(F)cc1 :: label 0
COc1cc(CNC(=O)C[C@H](C)CCC=C(C)C)ccc1OCc1cn(-c2ccccc2Cl)nn1 :: label 0
Cc1ccc(C(=O)Nc2cc(-n3cnc(F)c3)cc(C(F)(F)F)c2)cc1C#Cc1cnc2cccnn12 :: label 0
Cc1ccc2c(c1)nc(-c1ccccc1)n2CC(=O)N=Nc1c(O)[nH]c2ccc(Cl)cc12 :: label 1
CS(=O)(=O)Nc1cncc(-c2ccc3ncnc(NCc4ccccc4)c3c2)c1 :: label 0
Cc1ccc(C(C(=O)NC2CCCCC2)N(Cc2ccccc2Cl)C(=O)c2ccc(CN3CCOCC3)o2)o1 (centres undefined) :: label 0

---

test system: NCI-H226 lung; test: NCI-60 one-dose screen, 48 h (100 = growth as untreated, 0 = no growth, -100 = all killed); settings: 10 µM unless noted
The panel holds about 83,000 compounds, 20% with a hit somewhere; the sample as a whole holds those more often.
outcome-measure: growth (%)

Cc1ccc2c(c1)/C(=C/C(=O)c1cc3ccccc3oc1=O)C(=O)N2 :: 51.8
CCCCCCCCc1ccc(C(=O)Nc2cccc(O)c2)cc1 :: 67.8
Cc1ccc2nc(COc3ccc(C(=O)NNC(=O)Nc4ccc(Cl)c(C(F)(F)F)c4)cc3)[nH]c2c1 :: 54.2
O=C(CSc1nnc(-c2ccc(-c3nc4ccccc4[nH]3)cc2)o1)Nc1ccc(Cl)cc1 :: 40.3
C/C(=N\Nc1ccc(C(=O)O)cc1)c1cnn(-c2cc(=O)[nH]c3ccc(C)cc23)c1C :: 90.1
Oc1ccc(F)c(Nc2nc(SCCN3CCOCC3)nc3c2cnn3CC(Cl)c2ccc(Br)cc2)c1 (stereo not given) :: 29.2
Cc1cc(C)c2[nH]c(=O)c(C(c3nnnn3Cc3ccc4c(c3)OCO4)N3CCN(C)CC3)cc2c1 (stereo not given) :: 102
CC(C)(C)C(=O)C1CC(C#N)=C2C=Cc3c(ccc4ccccc34)N21 (stereo not given) :: 77
CC1=C(C)C(=O)C(NCCN2CCOCC2)=C(Br)C1=O :: 67.1
COc1ccc2[nH]c(=O)c(CSc3ccccc3Nc3nccc(-c4ccc(Cl)cc4)n3)cc2c1 :: 45.7
COc1ccc(CCC2NCCc3c(Br)c4c(c(OC)c32)OCO4)cc1 (stereo not given) :: 25.5
O=C(NN1C(=O)/C(=C/C=C/c2ccc([N+](=O)[O-])o2)SC1=S)c1ccc([N+](=O)[O-])cc1 :: -83.3
COc1ccc(NC(=O)CSc2nnc(-c3ccc(-c4nc5ccc(Cl)cc5[nH]4)cc3)o2)cc1 :: -18.8
c1ccc(CSc2nnc(-c3ccc4nc(-c5ccccc5)[nH]c4c3)o2)cc1 :: -40.1
Cc1cccc(-c2ccccc2Oc2ccc3nnc(Cl)n3n2)c1 :: 103
O=C1Nc2cc(-c3ccc(NS(=O)(=O)c4ccc([N+](=O)[O-])cc4)cc3)ccc2/C1=C/c1ccc[nH]1 :: -12.3
Cc1ccc(N=Nc2c(N)nn3c(-c4cc5ccccc5oc4=O)ccnc23)cc1 :: 33.4
O=C1Nc2ccccc2/C1=C/C(=O)c1cc2ccccc2oc1=O :: 93.7
COc1cncc(-c2ccc3ncnc(N4CCc5ccc(Cl)cc54)c3c2)c1 :: 31.8
CN(C)c1nc(NCCNS(=O)(=O)c2ccc(C3=Nc4c(N)nc(N)nc4NC(c4ccc(Cl)cc4)C3)cc2)nc(N2CCOCC2)n1 (stereo not given) :: 58.6

---

System: MDA-MB-468 breast
Assay: NCI-60 one-dose screen, 48 h (100 = growth as untreated, 0 = no growth, -100 = all killed)
Conditions: 10 µM unless noted
Protocol: Growth inhibition of the MDA-MB-468 human Breast tumor cell line is measured as a screen for anti-cancer activity. Cells are grown in 96 well plates and exposed to the test compound for 48 hours. Compounds are tested at a single concentration, which is 10^-5 M for most compounds. The reported endpoint is percent growth (GI% or GIPRCNT), where numbers from 0 - 100% represent growth inhibition, and numbers from -100% - 0 represent cell death. […]
This is part of a sample that, as a whole, favours compounds with a hit. Of some 83,000 tested, about 20% had one in any assay.
// values below are reported growth
outcome-measure: growth (%)

NC(=O)c1ccc(-c2ccc3ncnc(N4CCc5cc(F)c(Cl)cc54)c3c2)cn1 :: -7.37
O=C1CC(c2ccc(I)cc2)OC2C=Cc3ccccc3C12 (stereo not given) :: 123
COc1ccc(-c2nc3ccc(-c4nnc(SCC(=O)Nc5ccc(/C(C)=N\O)cc5)o4)cc3[nH]2)cc1 :: 100
CCCCNC(=S)Nc1ccc(OCc2nc3ccc(Cl)cc3[nH]2)cc1 :: 3.25
O=C1c2cccc3c(N4CCN(c5ccccc5)CC4)ccc(c23)C(=O)N1c1cccc(-c2nn(-c3ccccc3)cc2-c2nc3ccccc3s2)c1 :: 96.9
COc1ccc2c(c1)C(Sc1ccc(Br)cc1)c1c(nc(N)c(C#N)c1N)O2 (stereo not given) :: 97.1
CC1=C(C)C(=O)C(NCCN2CCOCC2)=C(Br)C1=O :: -96.2
Nc1cc(-c2c[nH]c3ccc(Br)cc23)nc2cc(-c3c[nH]c4ccccc34)nn12 :: -81.8
O=C(CSc1nc2c(c(=O)[nH]1)CCCC2)Nc1ccccc1C(=O)O :: 100
CC1=C(C)C(=O)C(N2CCSCC2)=CC1=O :: 60.4
